Target: constitutive proteasome (B5c) (Homo sapiens, UniProt P20618+P28074)
Test: Caliper-based proteasome assay, constitutive proteasome chymotrypsin-like activity
Conditions: human recombinant constitutive proteasome 0.3 nM, FAM-labeled peptide substrate 1 μM, room temperature 3 h
From the text: A Caliper-based proteasome assay (Caliper Life Sciences, Hopkinton, Mass.) was used to measure inhibition of the chymotrypsin-like activity of both immunoproteasome (LMP7/B5i) and the constitutive proteasome (B5c) for a compound of Formula (I). […] The peptide cleavage reaction product was quantified on a Caliper LabChip 3000. […]
Below, each entry is listed with its recorded IC50.
Give the value in nM but do not write nM after it.

Cc1ccc(CNC(=O)[C@H](CCCCNC(=O)C(C#N)=CC(C)C)NC(=O)[C@@H](NC(=O)c2cc(C)on2)[C@@H](C)O)cc1 [Example 21]: 143

Q: Look up IC50: Cc1ccc(CNC(=O)[C@H](Cc2cccc(N(C)C(=O)C(C#N)=CC(C)C)c2)NC(=O)[C@@H](NC(=O)c2cc(C)on2)[C@@H](C)O)cc1 [Example 25]
A: 1450

Q: Look up IC50: Cc1ccc(CNC(=O)[C@H](COc2cccc(C=C(C#N)C(=O)N(C)C)c2)NC(=O)[C@@H](NC(=O)c2cc(C)on2)[C@@H](C)O)cc1 [Example 1]
A: 274

Q: Look up IC50: Cc1ccc(CNC(=O)[C@H](CCCCNC(=O)C(C#N)=CC(C)(C)C)NC(=O)[C@@H](C)NC(=O)c2cc(C)on2)cc1 [Example 21d]
A: 3950

Q: Look up IC50: Cc1ccc(CNC(=O)[C@H](CCCCN(C)C(=O)C(C#N)=CC(C)C)NC(=O)[C@@H](NC(=O)c2cc(C)on2)[C@@H](C)O)cc1 [Example 22]
A: 704

Q: Look up IC50: Cc1ccc(CNC(=O)[C@H](Cc2cccc(N(C)C(=O)C(C#N)=CC(C)C)c2)NC(=O)[C@@H](NC(=O)c2cc(C)on2)[C@@H](C)O)c(F)c1 [Example 27]
A: 147

* * *

target: constitutive proteasome (B5c) (Homo sapiens, UniProt P20618+P28074); test: Caliper-based proteasome assay, constitutive proteasome chymotrypsin-like activity; settings: human recombinant constitutive proteasome 0.3 nM, FAM-labeled peptide substrate 1 μM, room temperature 3 h
measurement_name: IC50 (nM)
Give the value in nM but do not write nM after it.

Some compounds with recorded IC50:
Cc1ccc(CNC(=O)[C@H](Cc2cccc(NC(=O)C(C#N)=CC(C)C)c2)NC(=O)[C@@H](NC(=O)c2cc(C)on2)[C@@H](C)O)cc1: 3210
Cc1ccc(CNC(=O)[C@H](COc2cccc(C=C(C#N)n3cncn3)c2)NC(=O)[C@@H](NC(=O)c2cc(C)on2)[C@@H](C)O)cc1: 120
Cc1ccc(CNC(=O)[C@H](CCc2cccc(C=C(C#N)C(=O)N(C)C)c2)NC(=O)[C@@H](NC(=O)c2cc(C)on2)[C@@H](C)O)cc1: 61
Cc1ccc(CNC(=O)[C@H](COc2cccc(C=C(C#N)C(=O)NC(C)(C)C)c2)NC(=O)[C@@H](NC(=O)c2cc(C)on2)[C@@H](C)O)cc1: 1030

Q: Look up IC50: `Cc1ccc(CNC(=O)[C@H](COc2cccc(C=C(C#N)C(=O)NC(C)(C)C)c2)NC(=O)[C@@H](NC(=O)c2cc(C)on2)[C@@H](C)O)c(F)c1`
A: 2140

Q: Look up IC50: `Cc1ccc(CNC(=O)[C@H](CC2CCN(C(=O)C(C#N)=CC(C)C)CC2)NC(=O)[C@@H](NC(=O)c2cc(C)on2)[C@@H](C)O)cc1`
A: 788

* * *

Below, each entry is listed with its recorded IC50.
molecular target: immunoproteasome (LMP7/B5i) (Homo sapiens, UniProt P20618+P28062); assay: Caliper-based proteasome assay, immunoproteasome chymotrypsin-like activity; conditions: human recombinant immunoproteasome 0.3 nM, FAM-labeled peptide substrate 1 μM, room temperature 3 h
State the result as a value with its unit after it.

Some compounds with recorded IC50:
Cc1ccc(CNC(=O)[C@H](Cc2cccc(N(C)C(=O)C(C#N)=CC(C)C)c2)NC(=O)[C@@H](NC(=O)c2cc(C)on2)[C@@H](C)O)c(F)c1: 21 nM
Cc1ccc(CNC(=O)[C@H](CCc2cccc(C=C(C#N)C(=O)N(C)C)c2)NC(=O)[C@@H](NC(=O)c2cc(C)on2)[C@@H](C)O)cc1: 20 nM
Cc1ccc(CNC(=O)[C@H](COc2cccc(C=C(C#N)C(=O)NC(C)(C)C)c2)NC(=O)[C@@H](NC(=O)c2cc(C)on2)[C@@H](C)O)c(F)c1: 11 nM
Cc1ccc(CNC(=O)[C@H](CC2CCN(C(=O)C(C#N)=CC(C)C)CC2)NC(=O)[C@@H](NC(=O)c2cc(C)on2)[C@@H](C)O)cc1: 103 nM

Q: Look up IC50: `Cc1ccc(CNC(=O)[C@H](COc2cccc(C=C(C#N)C(=O)N(C)C)c2)NC(=O)[C@@H](NC(=O)c2cc(C)on2)[C@@H](C)O)cc1`
A: 31 nM

Q: Look up IC50: `Cc1ccc(CNC(=O)[C@H](CCCCNC(=O)C(C#N)=CC(C)C)NC(=O)[C@@H](NC(=O)c2cc(C)on2)[C@@H](C)O)cc1`
A: 5 nM

Q: Look up IC50: Cc1ccc(CNC(=O)[C@H](CCCCNC(=O)C(C#N)=CC(C)(C)C)NC(=O)[C@@H](C)NC(=O)c2cc(C)on2)cc1 [Example 21d]
A: 144 nM

Q: Look up IC50: `Cc1ccc(CNC(=O)[C@H](CCCCN(C)C(=O)C(C#N)=CC(C)C)NC(=O)[C@@H](NC(=O)c2cc(C)on2)[C@@H](C)O)cc1`
A: 37 nM

* * *

target: proteasome activity in HT-29 cells (Homo sapiens); construct: endogenous in cells; host or cells: HT-29; test: Durability of binding in cells, wash-out assay (Proteasome-Glo), HT-29; format: cell-based; settings: 2 hours incubation, washout, 30 minutes in culture; read-out: HT29 (30 min) IC50
pIC50: −log10 of the molar value.
measurement_name: pIC50

Cc1ccc(CNC(=O)[C@H](COc2cccc(C=C(C#N)C(=O)NC(C)(C)C)c2)NC(=O)[C@@H](NC(=O)c2cc(C)on2)[C@@H](C)O)cc1: < 5.30

Q: Look up pIC50: `Cc1ccc(CNC(=O)[C@H](CCCCNC(=O)C(C#N)=CC(C)C)NC(=O)[C@@H](NC(=O)c2cc(C)on2)[C@@H](C)O)cc1`
A: < 5.30

Q: Look up pIC50: `Cc1ccc(CNC(=O)[C@H](Cc2cccc(N(C)C(=O)C(C#N)=CC(C)C)c2)NC(=O)[C@@H](NC(=O)c2cc(C)on2)[C@@H](C)O)cc1`
A: < 5.30

Q: Look up pIC50: `Cc1ccc(CNC(=O)[C@H](COc2cccc(C=C(C#N)n3cncn3)c2)NC(=O)[C@@H](NC(=O)c2cc(C)on2)[C@@H](C)O)cc1`
A: 6.24

Q: Look up pIC50: `Cc1ccc(CNC(=O)[C@H](Cc2cccc(N(C)C(=O)C(C#N)=CC(C)C)c2)NC(=O)[C@@H](NC(=O)c2cc(C)on2)[C@@H](C)O)c(F)c1`
A: 5.42

Q: Look up pIC50: `Cc1ccc(CNC(=O)[C@H](CCc2cccc(C=C(C#N)C(=O)N(C)C)c2)NC(=O)[C@@H](NC(=O)c2cc(C)on2)[C@@H](C)O)cc1`
A: < 5.30

* * *

molecular target: proteasome activity in HT-29 cells (enriched in constitutive proteasome) (Homo sapiens, UniProt P28074); construct: endogenous in cells; assay: Inhibition of proteasome activity in cells (Proteasome-Glo), HT-29; conditions: 2 hr incubation, Suc-LLVY-aminoluciferin, read-out: HT29 IC50
measurement_name: IC50 (nM)
Give the value in nM but do not write nM after it.

Q: Look up IC50: `Cc1ccc(CNC(=O)[C@H](COc2cccc(C=C(C#N)n3cncn3)c2)NC(=O)[C@@H](NC(=O)c2cc(C)on2)[C@@H](C)O)cc1`
A: 200

Q: Look up IC50: `Cc1ccc(CNC(=O)[C@H](CCc2cccc(C=C(C#N)C(=O)N(C)C)c2)NC(=O)[C@@H](NC(=O)c2cc(C)on2)[C@@H](C)O)cc1`
A: 84

Q: Look up IC50: `Cc1ccc(CNC(=O)[C@H](Cc2cccc(N(C)C(=O)C(C#N)=CC(C)C)c2)NC(=O)[C@@H](NC(=O)c2cc(C)on2)[C@@H](C)O)cc1`
A: 1180

* * *

target: proteasome activity in HT-29 cells (Homo sapiens, UniProt P28074); construct: endogenous in cells; host or cells: HT-29; assay: Durability of binding in cells, wash-out assay (Proteasome-Glo), HT-29; assay type: cell-based; settings: 2 hours incubation, washout, 4 hours in culture; read-out: HT29 (4 h) IC50
pIC50: −log10 of the molar value.
measurement_name: pIC50

Some molecules with recorded pIC50:
Cc1ccc(CNC(=O)[C@H](Cc2cccc(N(C)C(=O)C(C#N)=CC(C)C)c2)NC(=O)[C@@H](NC(=O)c2cc(C)on2)[C@@H](C)O)c(F)c1: < 5.30
Cc1ccc(CNC(=O)[C@H](CCc2cccc(C=C(C#N)C(=O)N(C)C)c2)NC(=O)[C@@H](NC(=O)c2cc(C)on2)[C@@H](C)O)cc1: < 5.30
Cc1ccc(CNC(=O)[C@H](COc2cccc(C=C(C#N)C(=O)NC(C)(C)C)c2)NC(=O)[C@@H](NC(=O)c2cc(C)on2)[C@@H](C)O)cc1: < 5.30
Cc1ccc(CNC(=O)[C@H](Cc2cccc(N(C)C(=O)C(C#N)=CC(C)C)c2)NC(=O)[C@@H](NC(=O)c2cc(C)on2)[C@@H](C)O)cc1: < 5.30

Continue with the molecule presented below.
Q: Param readout = pIC50; param system = proteasome activity in HT-29 cells (Homo sapiens, UniProt P28074); param query = `Cc1ccc(CNC(=O)[C@H](COc2cccc(C=C(C#N)n3cncn3)c2)NC(=O)[C@@H](NC(=O)c2cc(C)on2)[C@@H](C)O)cc1` ; response: value
A: < 5.30
